Hello, the source for this data is patent US11261186B2, in case you need it.

Recorded pEC50 for the following compounds
Molecular target: hGPR120 (Homo sapiens)
Sequence (Q5NUL3 1-361): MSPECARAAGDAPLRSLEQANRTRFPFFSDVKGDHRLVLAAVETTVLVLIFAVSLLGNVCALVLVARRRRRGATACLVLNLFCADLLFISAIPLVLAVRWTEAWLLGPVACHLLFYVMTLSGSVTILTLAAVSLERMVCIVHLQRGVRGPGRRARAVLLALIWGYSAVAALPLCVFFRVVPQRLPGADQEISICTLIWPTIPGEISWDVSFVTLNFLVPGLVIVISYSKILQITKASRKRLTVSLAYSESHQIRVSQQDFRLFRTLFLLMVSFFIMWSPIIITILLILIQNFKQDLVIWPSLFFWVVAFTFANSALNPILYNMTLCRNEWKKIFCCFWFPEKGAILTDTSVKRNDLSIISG
Experiment: Measurement of Activity of GPR120 Agonist (Cell-Based Assay), Calcium 5 dye fluorescence
Details: CHO-K1 cells expressing Ga16 and hGPR120
pEC50: −log10 of the molar value.

Some solved entries appear below for comparison.
[[record]]
compound = "CC1(C)Oc2cccc(-c3cc(F)c(OCCCC(=O)O)c(F)c3)c2O1"
testvalue = "> 6.70"

[[record]]
compound = "CN(CCCC(=O)O)c1c(F)cc(-c2cccc(OCC3CCC3)c2)cc1F"
testvalue = "5.70 to 6.70"

[[record]]
compound = "CC(CCCC(=O)O)c1c(F)cc(-c2cncc(OC3CCC3)n2)cc1F (centres unmarked)"
testvalue = "> 6.70"

[[record]]
compound = "O=C(O)CCCCc1c(F)cc(-c2cccnc2OC2CCCC2)cc1F"
testvalue = "> 6.70"

[[record]]
compound = "CC(C)Oc1ncccc1-c1ccc2cc(CCC(=O)O)ccc2c1"
testvalue = "> 6.70"


# return recorded pEC50 for input COc1ccc(-c2cc(F)c(N3CCC(CC(=O)O)CC3)c(F)c2)cc1OC1CCC1 5.70 to 6.70

Please list pEC50 recorded for the compound CC(C)Cc1cncc(-c2cc(F)c(N3CCC(CC(=O)O)CC3)c(F)c2)n1 5.70 to 6.70

Tell me measured pEC50 for CCCOc1ccnc(-c2cc(F)c(N3CCC(CC(=O)O)C3)c(F)c2)n1 (centres unmarked) please. > 6.70

Note down pEC50 recorded for CC(CCCC(=O)O)c1c(F)cc(-c2cccnc2OC2CCOCC2)cc1F (centres unmarked) > 6.70

----------
Biological target: hGPR120 (Homo sapiens)
Sequence (Q5NUL3 1-361): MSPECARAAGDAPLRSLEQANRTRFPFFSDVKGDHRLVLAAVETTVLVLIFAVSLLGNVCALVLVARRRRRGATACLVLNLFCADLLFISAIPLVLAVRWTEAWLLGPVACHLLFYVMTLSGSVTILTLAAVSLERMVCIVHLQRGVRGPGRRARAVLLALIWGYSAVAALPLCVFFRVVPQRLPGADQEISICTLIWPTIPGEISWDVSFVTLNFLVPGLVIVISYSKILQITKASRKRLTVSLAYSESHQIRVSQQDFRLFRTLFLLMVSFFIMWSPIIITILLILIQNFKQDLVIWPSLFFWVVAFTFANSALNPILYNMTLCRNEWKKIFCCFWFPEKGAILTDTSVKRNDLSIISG
Experiment: Measurement of Activity of GPR120 Agonist (Cell-Based Assay), Calcium 5 dye fluorescence
Settings: CHO-K1 cells expressing Ga16 and hGPR120
propertyMeasured: EC50

Below, each entry is followed by its recorded EC50 result.
[[record]]
molecule = "CN(CCCC(=O)O)c1c(F)cc(-c2cccnc2SC2CCC2)cc1F"
propertymeasured = "EC50"
testvalue = "< 200 nM"

[[record]]
molecule = "CC(C)Oc1cccc(-c2cc(F)c(N3CC(CC(=O)O)C3)c(F)c2)n1"
propertymeasured = "EC50"
testvalue = "< 200 nM"

[[record]]
molecule = "CN(CCCC(=O)O)c1ccc(-c2cccnc2SC2CCCC2)cc1F"
propertymeasured = "EC50"
testvalue = "< 200 nM"

[[record]]
molecule = "O=C(O)CC1CCN(c2c(F)cc(-c3nccc(Oc4ccccn4)n3)cc2F)CC1"
propertymeasured = "EC50"
testvalue = "200 to 2000 nM"

[[record]]
molecule = "CC(C)Sc1ncccc1-c1cc(F)c(N2CCCC(CC(=O)O)C2)c(F)c1 (stereo not drawn)"
propertymeasured = "EC50"
testvalue = "2000 to 20000 nM"

[[record]]
molecule = "O=C(O)CCCOc1c(F)cc(-c2nccc(OC3CCC3)n2)cc1Cl"
propertymeasured = "EC50"
testvalue = "< 200 nM"

[[record]]
molecule = "O=C(O)CCCOc1c(F)cc(-c2nccc(OCC3CC3)n2)cc1Cl"
propertymeasured = "EC50"
testvalue = "< 200 nM"

[[record]]
molecule = "O=C(O)CCCSc1ccc(-c2cccc3c2OC(F)(F)O3)cc1F"
propertymeasured = "EC50"
testvalue = "< 200 nM"

[[record]]
molecule = "CC(Oc1cccc(-c2cc(F)c(N3CCC(CC(=O)O)CC3)c(F)c2)n1)C(F)(F)F (stereo not drawn)"
propertymeasured = "EC50"
testvalue = "200 to 2000 nM"

[[record]]
molecule = "CC(C)Oc1ncccc1-c1cc(F)c(N2CCC(CC(=O)O)CC2)c(F)c1"
propertymeasured = "EC50"
testvalue = "200 to 2000 nM"


Please look at this molecule and report its EC50: CC(C)Sc1ncccc1-c1cc(F)c(N2CC[C@H](CC(=O)O)C2)c(F)c1 < 200 nM

Specify EC50 for O=C(O)CC1CCN(c2c(F)cc(-c3csc(COCC4CC4)c3)cc2F)CC1 and stop. 200 to 2000 nM

Please look at this molecule and report its EC50: O=C(O)CCCOc1c(F)cc(-c2cncc(OCC3CC3)n2)cc1Cl < 200 nM

Return value of EC50 for input O=C(O)CCc1ccc2cc(-c3ccccc3Oc3ccccc3)ccc2c1 , no commentary. 200 to 2000 nM

Kindly indicate its recorded EC50. Item: O=C(O)CC1CCN(c2c(F)cc(-c3cccc(SC4CCC4)n3)cc2F)CC1 200 to 2000 nM
